protocol: amyloid nucleation score (Sup35N fusion, yeast selection) (log enrichment); library NNK2; higher = more nucleation; inactive = no reads after selection;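 note: zero at mode of non-aggregating sequences after 7 days selection at 30°C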
quantity: amyloid nucleation score

# example entries with known answers
substance: LVGWSGLLTDALEFLLSKDV
amyloid nucleation score: -0.592

substance: IYEGIIVIFSDTGTLWRYWI
amyloid nucleation score: -2.09

substance: AAWIAMCRILKQPTRCGHFL
amyloid nucleation score: 6.15

substance: TVQDMFIFIFYVYNSFGRYM
amyloid nucleation score: 3.35

substance: KWIMWLDRYPDTSPCILYAQ
amyloid nucleation score: 4.42

// sample CNYKYSDLVFHCLPPGRGYN , its amyloid nucleation score was inactive

// sample SRERPHFPLLIPGENMIMLM , its amyloid nucleation score was 1.04

// sample SNPDSLVLAGMLARMAYRKL , its amyloid nucleation score was -0.423

// sample ILRECFIFSHRKTHLLKFWL , its amyloid nucleation score was -0.622

// sample IAIRFIDDYCGFRGV , its amyloid nucleation score was 0.288

// sample LVSERGSWVGLRFCSRSSVT , its amyloid nucleation score was 0.359

// sample LDPSVLMLWLFYRVQSLHVS , its amyloid nucleation score was 0.008

// sample PGEECGGLSITIEWGTSSS , its amyloid nucleation score was 0.211
